Below, each entry is listed with its recorded EC50.
- System: THP-1 viability, CellTiter-Glo luminescence, 72 h
- TEST: THP-1 cell cytotoxicity, dose response, cytotoxicity control for Salmonella PhoP regulon inhibitors, S. typhimurium screen hits (AID 2253)

Please review the entries below; each comes with its answer.
COMPOUND: CN(Cc1ccccc1)CC(O)COc1ccc(CNCc2ccc(Cl)s2)cc1 (stereo not given)
EXPERIMENTAL_SYSTEM: THP-1 viability, CellTiter-Glo luminescence, 72 h
REPORTED_VALUE: 33.4 µM
//
COMPOUND: O=C(c1cccs1)c1no[n+]([O-])c1C(=O)c1cccs1
EXPERIMENTAL_SYSTEM: THP-1 viability, CellTiter-Glo luminescence, 72 h
REPORTED_VALUE: 2.61 µM
//
COMPOUND: COc1ccc(Nc2ccc3c(c2)=NC2(CCCCC2)[N+]=3[O-])cc1
EXPERIMENTAL_SYSTEM: THP-1 viability, CellTiter-Glo luminescence, 72 h
REPORTED_VALUE: 4.59 µM
//
COMPOUND: O=C(C[n+]1cc(-c2ccc(Cl)c(Cl)c2)n2c1CCC2)N1c2ccccc2Sc2ccccc21
EXPERIMENTAL_SYSTEM: THP-1 viability, CellTiter-Glo luminescence, 72 h
REPORTED_VALUE: 17.8 µM

Enquiry: Please give the measured EC50 for this compound: COc1cc([N+](=O)[O-])cc(/C=N\NC(=O)C2COc3ccccc3O2)c1O (stereo not given)
Return: 19.6 µM
